# Test Target: HLA-B*57:01
# Assay Text: IEDB peptide-MHC binding, purified MHC/direct/fluorescence; filed as Kd, often an IC50 or EC50 that approximates it; bounds were set here for any values at or beyond the usual limits of such assays
# Measurement Parameters: source organism: Brucella suis 1330
pKd: −log10 of the molar value.
Endpoint Label: pKd

Tell me reported pKd for ETVWPFFYA , tested with HLA-B*57:01.
≤ 4.70

* * *

# Test Target: HLA-A*23:01
# Assay Text: IEDB peptide-MHC binding, purified MHC/direct/fluorescence; filed as Kd, often an IC50 or EC50 that approximates it; bounds were set here for any values at or beyond the usual limits of such assays
# Measurement Parameters: source organism: Orthohantavirus negraense
Endpoint Label: Kd

Entry under review: RRFTQAIYD . Reported Kd?
≥ 20 µM

* * *

# Test Target: HLA-A*33:01
# Assay Text: IEDB peptide-MHC binding, purified MHC/competitive/radioactivity; filed as Kd, often an IC50 or EC50 that approximates it; bounds were set here for any values at or beyond the usual limits of such assays
# Measurement Parameters: source organism: Dengue virus 2 Jamaica/1409/1983
Mark Y for Kd under 10 nM, N if at or over.

NMISRMLINR    Y
WTLMYFHRR    Y
EMGANFKAER    N
TVMDIISRR    N
LMCHATFTMR    N

Next up:
In the record for MPSMKRFRR , is Kd less than 10 nM?
Y

* * *

Some sequences, each annotated with its measured Kd.
# Test Target: HLA-A*02:12
# Assay Text: IEDB peptide-MHC binding, purified MHC/direct/fluorescence; filed as Kd, often an IC50 or EC50 that approximates it; bounds were set here for any values at or beyond the usual limits of such assays
# Measurement Parameters: source organism: Mycobacterium tuberculosis str. Haarlem

LPVEYLQVP    ≥ 20 µM

Turning now to a further record.
Entry under review: APAKKAAAK . Reported Kd?
≥ 20 µM

* * *

Some sequences, each annotated with its measured Kd.
# Test Target: HLA-A*26:02
# Assay Text: IEDB peptide-MHC binding, purified MHC/competitive/fluorescence; filed as Kd, often an IC50 or EC50 that approximates it; bounds were set here for any values at or beyond the usual limits of such assays
# Measurement Parameters: source organism: Orthomarburgvirus marburgense

NQQVTNSKY    ≥ 20 µM

Turning now to a further record.
Entry under review: ARHGEYAPF . Reported Kd?
0.738 µM

* * *

# Test Target: HLA-B*83:01
# Assay Text: IEDB peptide-MHC binding, purified MHC/competitive/fluorescence; filed as Kd, often an IC50 or EC50 that approximates it; bounds were set here for any values at or beyond the usual limits of such assays
# Measurement Parameters: source organism: Human herpesvirus 4 strain B95-8
Endpoint Label: Kd

Entry under review: CSDAFYPFY . Reported Kd?
≥ 5 µM

* * *

# Test Target: HLA-A*32:15
# Assay Text: IEDB peptide-MHC binding, purified MHC/competitive/fluorescence; filed as Kd, often an IC50 or EC50 that approximates it; bounds were set here for any values at or beyond the usual limits of such assays
# Measurement Parameters: source organism: dengue virus type 1
Endpoint Label: Kd (nM)
Note: unit nM is implicit; provide only the numeric part.

Entry under review: FTMRLLSPV . Reported Kd?
116

* * *

# Test Target: HLA-A*30:02
# Assay Text: IEDB peptide-MHC binding, purified MHC/competitive/radioactivity; filed as Kd, often an IC50 or EC50 that approximates it; bounds were set here for any values at or beyond the usual limits of such assays
# Measurement Parameters: source organism: Vaccinia virus Copenhagen
Endpoint Label: pKd
Remember, pKd is on a log scale: it is -log10 of the molar concentration.

Tell me reported pKd for FGDSEEPVTY , tested with HLA-A*30:02.
4.88

* * *

# Test Target: HLA-B*18:01
# Assay Text: IEDB peptide-MHC binding, purified MHC/competitive/fluorescence; filed as Kd, often an IC50 or EC50 that approximates it; bounds were set here for any values at or beyond the usual limits of such assays
# Measurement Parameters: source organism: Escherichia coli B171
pKd: −log10 of the molar value.
Endpoint Label: pKd

Entry under review: KAIIDTAQF . Reported pKd?
≤ 4.70

* * *

# Test Target: HLA-A*02:01
# Assay Text: IEDB peptide-MHC binding, purified MHC/direct/fluorescence; filed as Kd, often an IC50 or EC50 that approximates it; bounds were set here for any values at or beyond the usual limits of such assays
# Measurement Parameters: source organism: Salmonella enterica subsp. enterica serovar Typhimurium
Endpoint Label: pKd
Remember, pKd is on a log scale: it is -log10 of the molar concentration.

Entry under review: RVNKGTGVK . Reported pKd?
5.87

* * *

# Test Target: HLA-B*83:01
# Assay Text: IEDB peptide-MHC binding, purified MHC/competitive/fluorescence; filed as Kd, often an IC50 or EC50 that approximates it; bounds were set here for any values at or beyond the usual limits of such assays
# Measurement Parameters: source organism: Mycobacterium tuberculosis variant bovis BCG str. Pasteur 1173P2
Endpoint Label: Kd (µM)
Note: unit µM is implicit; provide only the numeric part.

Tell me reported Kd for MAAVRTTAL , tested with HLA-B*83:01.
0.508

* * *

# Test Target: HLA-A*02:12
# Assay Text: IEDB peptide-MHC binding, purified MHC/competitive/fluorescence; filed as Kd, often an IC50 or EC50 that approximates it; bounds were set here for any values at or beyond the usual limits of such assays
# Measurement Parameters: source organism: Rickettsia sibirica 246
Endpoint Label: Kd

Entry under review: AMYDPQTYY . Reported Kd?
≥ 20 µM

* * *

# Test Target: HLA-B*53:01
# Assay Text: IEDB peptide-MHC binding, purified MHC/competitive/radioactivity; filed as Kd, often an IC50 or EC50 that approximates it; bounds were set here for any values at or beyond the usual limits of such assays
# Measurement Parameters: source organism: Dengue virus 4 Dominica/814669/1981
Endpoint Label: Kd (nM)
Note: unit nM is implicit; provide only the numeric part.

Entry under review: FVVDNVHTW . Reported Kd?
8.45

* * *

# Test Target: HLA-B*39:01
# Assay Text: IEDB peptide-MHC binding, purified MHC/competitive/fluorescence; filed as Kd, often an IC50 or EC50 that approximates it; bounds were set here for any values at or beyond the usual limits of such assays
# Measurement Parameters: source organism: Zaire ebolavirus
Endpoint Label: Kd

Illustrative cases are given below, each with its answer.
LSDLCNFLV    ≥ 20 µM
HLPGFGTAF    ≥ 20 µM

Turning now to a further record.
Entry under review: LEARVNLSV . Reported Kd?
≥ 20 µM

* * *

# Test Target: HLA-B*08:01
# Assay Text: IEDB peptide-MHC binding, purified MHC/direct/fluorescence; filed as Kd, often an IC50 or EC50 that approximates it; bounds were set here for any values at or beyond the usual limits of such assays
# Measurement Parameters: source organism: Variola virus
Endpoint Label: Kd

Tell me reported Kd for YTDLTYQSF , tested with HLA-B*08:01.
≥ 20 µM

* * *

# Test Target: HLA-B*39:01
# Assay Text: IEDB peptide-MHC binding, purified MHC/competitive/fluorescence; filed as Kd, often an IC50 or EC50 that approximates it; bounds were set here for any values at or beyond the usual limits of such assays
# Measurement Parameters: source organism: Staphylococcus aureus subsp. aureus N315
pKd: −log10 of the molar value.
Endpoint Label: pKd

Entry under review: VILNYIPVL . Reported pKd?
≤ 4.70

* * *

# Test Target: HLA-A*02:19
# Assay Text: IEDB peptide-MHC binding, purified MHC/competitive/fluorescence; filed as Kd, often an IC50 or EC50 that approximates it; bounds were set here for any values at or beyond the usual limits of such assays
# Measurement Parameters: source organism: Vibrio cholerae 2740-80
pKd: −log10 of the molar value.
Endpoint Label: pKd

Entry under review: CERYGFPAS . Reported pKd?
≤ 4.70

* * *

# Test Target: HLA-B*08:01
# Assay Text: IEDB peptide-MHC binding, purified MHC/competitive/fluorescence; bounds were set here for any values at or beyond the usual limits of such assays
# Measurement Parameters: source organism: Zaire ebolavirus
Some sequences, each annotated with its measured IC50.

GGRRTRREA    ≥ 223 µM
ELRTFSILN    ≥ 302 µM
FLRATTELR    ≥ 87.8 µM

Turning now to a further record.
Tell me reported IC50 for GLLIVKTVL , tested with HLA-B*08:01.
≥ 135 µM

* * *

# Test Target: HLA-A*69:01
# Assay Text: IEDB peptide-MHC binding, purified MHC/competitive/fluorescence; filed as Kd, often an IC50 or EC50 that approximates it; bounds were set here for any values at or beyond the usual limits of such assays
# Measurement Parameters: source organism: Orthohantavirus andesense
pKd: −log10 of the molar value.
Endpoint Label: pKd

Entry under review: YLIPSVTSL . Reported pKd?
≤ 4.70

* * *

Some sequences, each annotated with its measured pKd.
# Test Target: HLA-B*53:01
# Assay Text: IEDB peptide-MHC binding, purified MHC/competitive/radioactivity; filed as Kd, often an IC50 or EC50 that approximates it; bounds were set here for any values at or beyond the usual limits of such assays
# Measurement Parameters: source organism: Dengue virus 4 Philippines/H241/1956
Remember, pKd is on a log scale: it is -log10 of the molar concentration.

Illustrative cases are given below, each with its answer.
YPLAIPVTM    8.46
MTTTANWLW    8.60

Turning now to a further record.
Entry under review: MPVMKRYSAP . Reported pKd?
4.80
